Some compounds, each annotated with its measured IC50.
- TEST_SYSTEM: human EGFR (native sequence) (Homo sapiens, UniProt P00533)
- Sequence (P00533 25-1210): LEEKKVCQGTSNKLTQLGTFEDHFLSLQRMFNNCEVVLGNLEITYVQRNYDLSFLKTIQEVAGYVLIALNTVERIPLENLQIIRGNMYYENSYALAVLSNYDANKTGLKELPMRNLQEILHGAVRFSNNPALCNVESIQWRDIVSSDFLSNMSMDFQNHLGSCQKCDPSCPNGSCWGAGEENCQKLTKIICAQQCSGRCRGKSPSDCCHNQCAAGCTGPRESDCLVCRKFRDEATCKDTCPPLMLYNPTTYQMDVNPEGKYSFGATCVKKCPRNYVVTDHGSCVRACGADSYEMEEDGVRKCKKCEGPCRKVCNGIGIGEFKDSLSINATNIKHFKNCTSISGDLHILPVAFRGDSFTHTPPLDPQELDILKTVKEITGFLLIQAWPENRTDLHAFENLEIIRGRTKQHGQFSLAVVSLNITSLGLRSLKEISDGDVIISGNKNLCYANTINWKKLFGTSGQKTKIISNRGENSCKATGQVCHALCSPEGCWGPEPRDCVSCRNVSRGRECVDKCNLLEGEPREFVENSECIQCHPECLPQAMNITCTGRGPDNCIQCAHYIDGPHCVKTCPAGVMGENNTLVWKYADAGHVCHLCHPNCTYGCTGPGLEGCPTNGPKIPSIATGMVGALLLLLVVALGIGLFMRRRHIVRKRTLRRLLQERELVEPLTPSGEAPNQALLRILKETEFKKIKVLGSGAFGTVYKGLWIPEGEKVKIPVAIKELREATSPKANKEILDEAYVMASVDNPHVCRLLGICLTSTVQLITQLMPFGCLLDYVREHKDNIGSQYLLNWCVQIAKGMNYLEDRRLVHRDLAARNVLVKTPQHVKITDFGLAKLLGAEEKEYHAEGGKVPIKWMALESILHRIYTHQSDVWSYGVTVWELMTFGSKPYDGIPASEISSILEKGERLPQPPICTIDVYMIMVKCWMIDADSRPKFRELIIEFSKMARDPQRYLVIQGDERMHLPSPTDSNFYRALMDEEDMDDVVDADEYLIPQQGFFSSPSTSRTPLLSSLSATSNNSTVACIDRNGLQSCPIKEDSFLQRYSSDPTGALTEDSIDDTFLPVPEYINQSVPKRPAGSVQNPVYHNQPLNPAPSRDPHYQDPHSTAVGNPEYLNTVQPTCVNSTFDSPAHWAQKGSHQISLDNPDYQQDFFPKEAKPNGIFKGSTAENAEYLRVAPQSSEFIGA
- PROTOCOL_TEXT: Kinase inhibitory activity against human EGFR (native sequence)
- Assay type: biochemical
- RUN_PARAMETERS: human EGFR native sequence; 10 μM ATP; read-out: IC50 for kinase inhibition, EGFR
PROPERTY: IC50

| COMPOUND | TEST_SYSTEM | PROPERTY | EXPERIMENTAL_VALUE |
| --- | --- | --- | --- |
| C=CC(=O)Nc1cc(Nc2ncc(Cl)c(Nc3ccccc3P(C)(C)=O)n2)c(OC)cc1OCC1CCCCN1C (stereo not shown) | human EGFR (native sequence) (Homo sapiens, UniProt P00533) | IC50 | < 50 nM |
| COc1cc(F)c(NC(=O)/C=C/Cl)cc1Nc1ncc(Cl)c(Nc2ccccc2P(C)(C)=O)n1 | human EGFR (native sequence) (Homo sapiens, UniProt P00533) | IC50 | < 50 nM |
| COc1cc(P(C)(C)=O)ccc1Nc1ncc(Cl)c(Oc2cccc(NC(=O)C#CCN(C)C)c2)n1 | human EGFR (native sequence) (Homo sapiens, UniProt P00533) | IC50 | < 50 nM |
| COc1ccc(NC(=O)/C=C/C2(NC(=O)OC(C)(C)C)CC2)cc1Nc1ncc(Cl)c(Nc2ccccc2P(C)(C)=O)n1 | human EGFR (native sequence) (Homo sapiens, UniProt P00533) | IC50 | ≥ 250 nM |

----------
- TEST_SYSTEM: BaF3 cells expressing the target EGFR mutations (Homo sapiens, UniProt P00533, T790M/L858R, cells depend on it)
- Construct: IC50, BAF3 EGFR L858R-T790M PURO POOL; other: BAF3 EGFR L858R-T790M PURO POOL cells, MTT; IC50, BAF3 EGFR L858R-T790M PURO POOL; other: BAF3 EGFR L858R-T790M PURO POOL cells; MTT
- Sequence (P00533 whole entry T790M/L858R): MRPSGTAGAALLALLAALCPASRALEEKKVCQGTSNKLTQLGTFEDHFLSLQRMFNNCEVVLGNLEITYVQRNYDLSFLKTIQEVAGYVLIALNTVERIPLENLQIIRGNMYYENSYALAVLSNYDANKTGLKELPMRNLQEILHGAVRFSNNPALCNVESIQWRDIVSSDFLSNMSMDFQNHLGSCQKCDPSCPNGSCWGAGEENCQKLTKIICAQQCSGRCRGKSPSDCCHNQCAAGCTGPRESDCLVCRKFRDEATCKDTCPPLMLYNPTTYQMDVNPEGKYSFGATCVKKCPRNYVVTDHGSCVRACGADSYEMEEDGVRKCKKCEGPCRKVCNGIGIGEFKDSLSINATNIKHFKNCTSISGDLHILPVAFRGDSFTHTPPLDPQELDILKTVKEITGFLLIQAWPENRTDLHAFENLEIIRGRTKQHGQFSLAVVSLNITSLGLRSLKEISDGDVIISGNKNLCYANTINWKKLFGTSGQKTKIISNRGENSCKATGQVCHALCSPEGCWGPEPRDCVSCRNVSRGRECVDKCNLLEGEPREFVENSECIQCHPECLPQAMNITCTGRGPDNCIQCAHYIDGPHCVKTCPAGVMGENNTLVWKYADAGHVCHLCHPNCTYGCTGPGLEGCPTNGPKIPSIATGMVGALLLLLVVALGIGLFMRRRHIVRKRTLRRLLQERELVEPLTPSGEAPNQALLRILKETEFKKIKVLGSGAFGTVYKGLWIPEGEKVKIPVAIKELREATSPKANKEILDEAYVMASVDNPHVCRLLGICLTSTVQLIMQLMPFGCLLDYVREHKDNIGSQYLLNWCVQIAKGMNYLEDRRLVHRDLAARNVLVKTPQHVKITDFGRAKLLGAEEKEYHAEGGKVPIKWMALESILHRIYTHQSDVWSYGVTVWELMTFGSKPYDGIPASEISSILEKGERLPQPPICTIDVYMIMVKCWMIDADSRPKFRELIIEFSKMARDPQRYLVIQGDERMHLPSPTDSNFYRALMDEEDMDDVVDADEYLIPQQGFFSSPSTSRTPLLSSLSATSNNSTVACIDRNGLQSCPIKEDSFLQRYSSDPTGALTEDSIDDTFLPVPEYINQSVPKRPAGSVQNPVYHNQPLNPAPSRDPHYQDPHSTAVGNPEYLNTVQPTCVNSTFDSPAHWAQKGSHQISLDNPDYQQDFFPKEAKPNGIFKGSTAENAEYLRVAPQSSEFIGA
- PROTOCOL_TEXT: Antiproliferative activity (MTT) against BaF3 cells expressing the target EGFR mutations
- Format: cell-based
- RUN_PARAMETERS: BAF3 EGFR L858R-T790M PURO POOL cells, read-out: IC50, BAF3 EGFR L858R-T790M PURO POOL
PROPERTY: GI50

| CPD_SMILES | PROPERTY | EXPERIMENTAL_VALUE |
| --- | --- | --- |
| C=CC(=O)Nc1cc(Nc2ncc(Cl)c(Nc3ccccc3P(C)(C)=O)n2)c(OC)cc1N1CCC(N2CCCCC2)CC1 | GI50 | < 50 nM |
| COc1cc(F)c(NC(=O)C#CCCN2CCCCC2)cc1Nc1ncc(Cl)c(Nc2ccccc2P(C)(C)=O)n1 | GI50 | < 50 nM |
| C=CC(=O)Nc1ccc(OC)c(Nc2ncc(C#N)c(Nc3ccccc3P(C)(C)=O)n2)c1 | GI50 | ≥ 250 nM |
| COCC#CC(=O)Nc1ccc(OC)c(Nc2ncc(Cl)c(Nc3ccccc3P(C)(C)=O)n2)c1 | GI50 | < 50 nM |
| C=CC(=O)Nc1cc(Nc2ncc(Cl)c(Nc3ccccc3P(C)(C)=O)n2)c(OC)cc1C#CCN1CCN(C)CC1 | GI50 | 101 to 250 nM |
| C=CC(=O)Nc1ccc(OC)c(Nc2ncc(OC)c(Nc3ccccc3P(C)(C)=O)n2)c1 | GI50 | 50 to 100 nM |
| C=CC(=O)Nc1cc(Nc2ncc(Cl)c(Nc3ccccc3P(C)(C)=O)n2)c(OC)cc1C#CCN(C)C(C)C | GI50 | < 50 nM |
| C=CC(=O)Nc1cc(Nc2ncc(Cl)c(Nc3ccccc3P(C)(C)=O)n2)c(Cl)cc1C#CCN(C)C | GI50 | < 50 nM |
| COc1ccc(NC(=O)/C=C/CN2CCCC2)cc1Nc1ncc(Cl)c(Nc2ccccc2P(C)(C)=O)n1 | GI50 | ≥ 250 nM |

----------
Some compounds, each annotated with its measured IC50.
- Tested on: BaF3 cells expressing wildtype EGFR
- PROTOCOL_TEXT: Antiproliferative activity (MTT) against control BaF3 cells expressing wildtype EGFR
- Assay type: cell-based
- RUN_PARAMETERS: Mus musculus, BAF3 PARENTAL cells (control)
PROPERTY: IC50

| COMPOUND | EXPERIMENTAL_VALUE |
| --- | --- |
| C=CC(=O)Nc1cc(Nc2ncc(Cl)c(Nc3ccccc3P(C)(C)=O)n2)c(OC)cc1OCC1CCOCC1 [Example 6] | ≥ 250 nM |
| C=CC(=O)Nc1cc(Nc2ncc(Cl)c(Nc3ccccc3P(C)(C)=O)n2)c(OC)cc1OCCN1CCN(C)CC1 [Example 2] | ≥ 250 nM |
| C=CC(=O)Nc1cc(Nc2ncc(Cl)c(Nc3ccccc3P(C)(C)=O)n2)c(OC)cc1N1CCC(N2CCOCC2)C1 (stereo not shown) [Example 28] | ≥ 250 nM |
| CC#CC(=O)Nc1cc(Nc2ncc(Cl)c(Nc3ccccc3P(C)(C)=O)n2)c(OC)cc1OCC1CCOCC1 [Example 102] | ≥ 250 nM |

----------
- TEST_SYSTEM: human EGFR (native sequence) (Homo sapiens, UniProt P00533)
- PROTOCOL_TEXT: Kinase inhibitory activity against human EGFR (native sequence)
- Format: biochemical
- RUN_PARAMETERS: human EGFR native sequence; 10 μM ATP; read-out: IC50 for kinase inhibition, EGFR
Some compounds, each annotated with its measured IC50.

| CPD_SMILES | IC50 |
| --- | --- |
| C=CC(=O)Nc1cc(Nc2ncc(Cl)c(Nc3ccccc3P(C)(C)=O)n2)c(OC)cc1N1CC(N2CCCC2)C1 | < 50 nM |
| C=CC(=O)Nc1cc(Nc2ncc(Cl)c(Nc3ccccc3P(C)(C)=O)n2)c(OC)cc1N1CCC(N2CCCC2)CC1 | 50 to 100 nM |
| C=CC(=O)Nc1cc(Nc2ncc(Cl)c(Nc3ccccc3P(C)(C)=O)n2)c(OC)cc1OCC1CCN(C)CC1 | 50 to 100 nM |
| C=CC(=O)Nc1cc(Nc2ncc(Cl)c(Nc3ccccc3P(C)(C)=O)n2)c(OC)cc1OCC1CCOCC1 | ≥ 250 nM |
| C=CC(=O)Nc1cc(Nc2ncc(Cl)c(Nc3ccccc3P(C)(C)=O)n2)c(OC)cc1OC1COC1 | ≥ 250 nM |
| COc1ccc(NC(=O)/C=C\C(=O)N2CCN(C)CC2)cc1Nc1ncc(Cl)c(Nc2ccccc2P(C)(C)=O)n1 | ≥ 250 nM |
| COc1cc(N2CCOCC2)c(NC(=O)C#CCCN2CCCCC2)cc1Nc1ncc(Cl)c(Nc2ccccc2P(C)(C)=O)n1 | < 50 nM |

----------
- TEST_SYSTEM: human EGFR (native sequence) (Homo sapiens)
- PROTOCOL_TEXT: Kinase inhibitory activity against human EGFR (native sequence)
- Format: biochemical
- RUN_PARAMETERS: 10 pt curves, 3 μM top concentration, 10 μM ATP; read-out: IC50 for kinase inhibition, EGFR
pIC50: −log10 of the molar value.
Some compounds, each annotated with its measured pIC50.
PROPERTY: pIC50

| COMPOUND | PROPERTY | EXPERIMENTAL_VALUE |
| --- | --- | --- |
| C=CC(=O)Nc1cc(Nc2ncc(Cl)c(Nc3ccccc3P(C)(C)=O)n2)c(OC)cc1OC(CF)CN(CC)CC (stereo not shown) [Example 121] | pIC50 | > 7.30 |
| C=CC(=O)Nc1ccc(OC)c(Nc2ncc(OC)c(Nc3ccccc3P(C)(C)=O)n2)c1 [Example 131] | pIC50 | 7.00 to 7.30 |
| C=CC(=O)Nc1cc(Nc2ncc(Cl)c(Nc3ccccc3P(C)(C)=O)n2)c(OC)cc1C#CCN(C)C(C)C [Example 166] | pIC50 | > 7.30 |
| C=CC(=O)Nc1cc(Nc2ncc(Cl)c(Nc3ccccc3P(C)(C)=O)n2)c(OC)cc1OC(COCC)CN(C)C (stereo not shown) [Example 142] | pIC50 | > 7.30 |

----------
- TEST_SYSTEM: human EGFR (native sequence) (Homo sapiens, UniProt P00533)
- PROTOCOL_TEXT: Kinase inhibitory activity against human EGFR (native sequence)
- Format: biochemical
- RUN_PARAMETERS: human EGFR native sequence; 10 μM ATP; read-out: IC50 for kinase inhibition, EGFR
pIC50: −log10 of the molar value.
Some compounds, each annotated with its measured pIC50.

| COMPOUND | pIC50 |
| --- | --- |
| C=CC(=O)Nc1cc(Nc2ncc(Cl)c(Nc3ccccc3P(C)(C)=O)n2)c(OC)cc1N1CCC(N(C)C)CC1 | > 7.30 |
| CC#CC(=O)Nc1cc(Nc2ncc(Cl)c(Nc3ccccc3P(C)(C)=O)n2)c(OC)cc1OCC1CCOCC1 | ≤ 6.60 |
| COc1ccc(NC(=O)/C=C\C(=O)N(C)C)cc1Nc1ncc(Cl)c(Nc2ccccc2P(C)(C)=O)n1 | ≤ 6.60 |
| C=CC(=O)Nc1cc(Nc2ncc(Cl)c(Nc3ccc(OCCN4CCCC4)cc3P(C)(C)=O)n2)c(OC)cc1F | > 7.30 |
| COCC#CC(=O)Nc1ccc(OC)c(Nc2ncc(Cl)c(Nc3ccccc3P(C)(C)=O)n2)c1 | > 7.30 |
| COc1ccc(NC(=O)/C=C/C(=O)NCCN(C)C)cc1Nc1ncc(Cl)c(Nc2ccccc2P(C)(C)=O)n1 | > 7.30 |
| C=CC(=O)Nc1cc(Nc2ncc(Cl)c(Nc3ccccc3P(C)(C)=O)n2)c(OC)cc1N1CCC(O)C1 (stereo not drawn) | > 7.30 |
| COc1ccc(NC(=O)C2=CCCN(C)C2)cc1Nc1ncc(Cl)c(Nc2ccccc2P(C)(C)=O)n1 | ≤ 6.60 |
| C=CC(=O)Nc1cc(Nc2ncc(Cl)c(Nc3ccccc3P(C)(C)=O)n2)c(OC)cc1OCc1ccncc1 | > 7.30 |
| COc1ccc(NC(=O)/C=C/Cl)cc1Nc1ncc(Cl)c(Nc2ccccc2P(C)(C)=O)n1 | > 7.30 |
| C=CC(=O)Nc1cc(Nc2ncc(Cl)c(Nc3ccccc3P(C)(C)=O)n2)c(OC)cc1N1CCC(N2CCN(C)CC2)C1 (stereo not drawn) | > 7.30 |
| C=CC(=O)Nc1cc(Nc2ncc(Cl)c(Nc3ccccc3P(C)(C)=O)n2)c(OC)cc1CCN1CCN(C)CC1 | > 7.30 |
| COc1ccc(NC(=O)/C=C/C(=O)N2CCN(C)CC2)cc1Nc1ncc(Cl)c(Nc2ccccc2P(C)(C)=O)n1 | > 7.30 |
| C=C(CN1CCC(O)C1)C(=O)Nc1ccc(OC)c(Nc2ncc(Cl)c(Nc3ccccc3P(C)(C)=O)n2)c1 (stereo not drawn) | > 7.30 |
| C=C(CN1CCCCC1)C(=O)Nc1ccc(OC)c(Nc2ncc(Cl)c(Nc3ccccc3P(C)(C)=O)n2)c1 | > 7.30 |

Origin of measurements: patent US9834571B2
